B1: SAM and SH3 domain-containing protein 1, residues 630 to 700; numbered along this chain, O94885 (parent)
chain: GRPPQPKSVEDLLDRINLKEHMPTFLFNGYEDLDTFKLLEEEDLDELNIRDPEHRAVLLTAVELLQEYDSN

# Variants of: B1
# procedureText: abundance fitness (aPCA) (normalised: wild type 0, dead -1); higher = more abundant; growth selection in yeast, the domain comes from the species named
# condition: Homo sapiens
For each entry below, report its abundance fitness value.
The reply should be a number, written without any unit.

Query: Consider the variant GRMPQPKSVEDLLDRINLKEHMPTFLFNGYEDLDTFKLLEEEDLDELNIRDPEHRAVLLTAVELLQEYDSN [P3M] and give its recorded abundance fitness.
Response: 0.008

Query: Consider the variant GRPPQPKSVEDLLDRINLKEHMPTFLFNGTEDLDTFKLLEEEDLDELNIRDPEHRAVLLTAVELLQEYDSN [Y30T] and give its recorded abundance fitness.
Response: -0.906

Query: Consider the variant NRPPQPKSVEDLLDRINLKEHMPTFLFNGYEDLDTFKLLEEEDLDELNIRDPEHRAVLLTAVELLQEYDSN [G1N] and give its recorded abundance fitness.
Response: 0.17

Query: Consider the variant GRPPQPKSVEDLLDRINLKEHMPTFEFNGYEDLDTFKLLEEEDLDELNIRDPEHRAVLLTAVELLQEYDSN [L26E] and give its recorded abundance fitness.
Response: -0.188

Query: Consider the variant GRPPQPKSQEDLLDRINLKEHMPTFLFNGYEDLDTFKLLEEEDLDELNIRDPEHRAVLLTAVELLQEYDSN [V9Q] and give its recorded abundance fitness.
Response: -0.796

Query: Consider the variant GRPPQPKSVEDTLDRINLKEHMPTFLFNGYEDLDTFKLLEEEDLDELNIRDPEHRAVLLTAVELLQEYDSN [L12T] and give its recorded abundance fitness.
Response: -0.829

Query: Consider the variant GRPPQEKSVEDLLDRINLKEHMPTFLFNGYEDLDTFKLLEEEDLDELNIRDPEHRAVLLTAVELLQEYDSN [P6E] and give its recorded abundance fitness.
Response: -0.481

Query: Consider the variant GRPPQPKSVEDLLDRINLKEHMPTFLFNGYEDLDTFKLLEEEDLAELNIRDPEHRAVLLTAVELLQEYDSN [D45A] and give its recorded abundance fitness.
Response: -0.622

Query: Consider the variant GRPPQPKSVEDLLDRINLKEHMPTFLFNGYADLDTFKLLEEEDLDELNIRDPEHRAVLLTAVELLQEYDSN [E31A] and give its recorded abundance fitness.
Response: 0.207

Query: Consider the variant GRPPQPKSVEDLLDRINLKEHMPTFLFNGYEDLDTFKLLEEEDLDELNIRDPEHRAVLLTAGELLQEYDSN [V62G] and give its recorded abundance fitness.
Response: -0.524

Query: Consider the variant GRPPQPKSVEDLLDRINLKEHMPTFLFNGYEDLDTFKLLEEEDLDELNIRDPEHRAVLKTAVELLQEYDSN [L59K] and give its recorded abundance fitness.
Response: -0.206

Query: Consider the variant GRPFQPKSVEDLLDRINLKEHMPTFLFNGYEDLDTFKLLEEEDLDELNIRDPEHRAVLLTAVELLQEYDSN [P4F] and give its recorded abundance fitness.
Response: 0.2

Query: Consider the variant GRPPQPKSVEDLLDRINLKEHMPTFLGNGYEDLDTFKLLEEEDLDELNIRDPEHRAVLLTAVELLQEYDSN [F27G] and give its recorded abundance fitness.
Response: 0.166

Query: Consider the variant GRPPQPKSVEDLLDRINLKEHMPTFLFNMYEDLDTFKLLEEEDLDELNIRDPEHRAVLLTAVELLQEYDSN [G29M] and give its recorded abundance fitness.
Response: -0.739

Query: Consider the variant GRPPQPKSVEDLLDRINLKEHMPTFLFNGYEKLDTFKLLEEEDLDELNIRDPEHRAVLLTAVELLQEYDSN [D32K] and give its recorded abundance fitness.
Response: -0.197

Query: Consider the variant GRPPQPKSVEDLLDRINLKEHMPTFLFNGYEDLDTFKLLESEDLDELNIRDPEHRAVLLTAVELLQEYDSN [E41S] and give its recorded abundance fitness.
Response: -0.34

Query: Consider the variant GRPPQPKSVEDLLDRINLKEHMPTFLFNGYWDLDTFKLLEEEDLDELNIRDPEHRAVLLTAVELLQEYDSN [E31W] and give its recorded abundance fitness.
Response: -0.248

Query: Consider the variant GRPPQPKSVEDLLDRINLKEHMPTFLFNGYEDLDTFKLLEEEDLDELNIRDPEHRAVLLTAVLLLQEYDSN [E63L] and give its recorded abundance fitness.
Response: -0.587

Query: Consider the variant GRPPQPKSVEDLLDRINLKEHMPTFLFNGYEDLDTFKLLEEEDLDELNIRDPEHRAVLLTPVELLQEYDSN [A61P] and give its recorded abundance fitness.
Response: -0.731

Query: Consider the variant GRPPQPKSVEDLLDRINLKEHMPTFLFNGYEDLDTFKLLEEEDLDELNIRDPEHRAVLLTAVSLLQEYDSN [E63S] and give its recorded abundance fitness.
Response: 0.004

Query: Consider the variant GWPPQPKSVEDLLDRINLKEHMPTFLFNGYEDLDTFKLLEEEDLDELNIRDPEHRAVLLTAVELLQEYDSN [R2W] and give its recorded abundance fitness.
Response: -0.643

Query: Consider the variant GRPPQPKSVEDLLDRINLKEHMPTFLFNGYEDLDTFKLLEEEDLDELNIRVPEHRAVLLTAVELLQEYDSN [D51V] and give its recorded abundance fitness.
Response: -0.553

Query: Consider the variant GRPPQPKSVEDLLDRINLKEHMPTFLFNGYEDLDTFKLLEEEDLDELNIRDPEHRAVLLGAVELLQEYDSN [T60G] and give its recorded abundance fitness.
Response: 0.071

Query: Consider the variant GRPPQPKSVEDLLDRINLKEHMPTFLFNGYEDLDTFKLLEEEDLDELNIRDPEHRAVLLTAVEELQEYDSN [L64E] and give its recorded abundance fitness.
Response: 0.483

Query: Consider the variant GRPPQPKSVEDLQDRINLKEHMPTFLFNGYEDLDTFKLLEEEDLDELNIRDPEHRAVLLTAVELLQEYDSN [L13Q] and give its recorded abundance fitness.
Response: -0.447

Query: Consider the variant GRPPQPKSVEDLLDRINLKEHMPTFLRNGYEDLDTFKLLEEEDLDELNIRDPEHRAVLLTAVELLQEYDSN [F27R] and give its recorded abundance fitness.
Response: 0.38

Query: Consider the variant GRPPQPKSVEDLLDRIQLKEHMPTFLFNGYEDLDTFKLLEEEDLDELNIRDPEHRAVLLTAVELLQEYDSN [N17Q] and give its recorded abundance fitness.
Response: -0.289

Query: Consider the variant GYPPQPKSVEDLLDRINLKEHMPTFLFNGYEDLDTFKLLEEEDLDELNIRDPEHRAVLLTAVELLQEYDSN [R2Y] and give its recorded abundance fitness.
Response: -0.317

Query: Consider the variant GRPPQPKSVEDLLDRINLKEHMPTFLFNGYEDLDTFKLLEEEDLWELNIRDPEHRAVLLTAVELLQEYDSN [D45W] and give its recorded abundance fitness.
Response: -0.499

Query: Consider the variant GRPPQPKSVWDLLDRINLKEHMPTFLFNGYEDLDTFKLLEEEDLDELNIRDPEHRAVLLTAVELLQEYDSN [E10W] and give its recorded abundance fitness.
Response: -0.511

Query: Consider the variant GRPPQPKSVEDLLDRINLKEHMPTFLFNGYEDWDTFKLLEEEDLDELNIRDPEHRAVLLTAVELLQEYDSN [L33W] and give its recorded abundance fitness.
Response: -1.19

Query: Consider the variant GRPPQPKSVEDLLDRINLKEHMPTFLFNGYEDLDTFKLLEEEDLDELNIRDPTHRAVLLTAVELLQEYDSN [E53T] and give its recorded abundance fitness.
Response: -0.207

Query: Consider the variant GRPPQPKSVEDLLDRINLKEHMPTFLFNGYEDLDTFKLLEEEDLDELNIRDREHRAVLLTAVELLQEYDSN [P52R] and give its recorded abundance fitness.
Response: -0.499

Query: Consider the variant GRPPQPKSVEDLLDRINLKEHMPTFLFNGYEDRDTFKLLEEEDLDELNIRDPEHRAVLLTAVELLQEYDSN [L33R] and give its recorded abundance fitness.
Response: -0.926

Query: Consider the variant GRPPQPFSVEDLLDRINLKEHMPTFLFNGYEDLDTFKLLEEEDLDELNIRDPEHRAVLLTAVELLQEYDSN [K7F] and give its recorded abundance fitness.
Response: -0.5

Query: Consider the variant GRPPQPKSVEDLLDRINLKEHMPTFLFNGYEDLLTFKLLEEEDLDELNIRDPEHRAVLLTAVELLQEYDSN [D34L] and give its recorded abundance fitness.
Response: -0.67

Query: Consider the variant GRPPQPKSVEDLLDRLNLKEHMPTFLFNGYEDLDTFKLLEEEDLDELNIRDPEHRAVLLTAVELLQEYDSN [I16L] and give its recorded abundance fitness.
Response: 0.128

Query: Consider the variant GRPPQPKSVEDLLDRINLKEHMPTFLFNGYEDLDTFKLLEEEDLDELNIRDPYHRAVLLTAVELLQEYDSN [E53Y] and give its recorded abundance fitness.
Response: -0.557

Query: Consider the variant GRPPQPKSVEDLLDRINLKEDMPTFLFNGYEDLDTFKLLEEEDLDELNIRDPEHRAVLLTAVELLQEYDSN [H21D] and give its recorded abundance fitness.
Response: -0.889

Query: Consider the variant GRPPQPKSVEDLLDRINLKEHMPTFLFNGYEDLDTFKLLFEEDLDELNIRDPEHRAVLLTAVELLQEYDSN [E40F] and give its recorded abundance fitness.
Response: -1.01

Query: Consider the variant GRPPQPKSVEDLLDRINLKEHMPTFLFNGYEDLDTFKLLEEEDLDELNIRDPEHRAQLLTAVELLQEYDSN [V57Q] and give its recorded abundance fitness.
Response: 0.251

Query: Consider the variant GRPPQPKSVEDLLDRINLKEHMPTFLFNGYEDLDTFKLLEEEDLDELNIRDPEHRAVLLTAVELLQEYDSC [N71C] and give its recorded abundance fitness.
Response: -0.009

Query: Consider the variant GRPPQPKSVEDLLDRINLKEHMPTFLFNGEEDLDTFKLLEEEDLDELNIRDPEHRAVLLTAVELLQEYDSN [Y30E] and give its recorded abundance fitness.
Response: -0.515

Query: Consider the variant GRPPQVKSVEDLLDRINLKEHMPTFLFNGYEDLDTFKLLEEEDLDELNIRDPEHRAVLLTAVELLQEYDSN [P6V] and give its recorded abundance fitness.
Response: -0.168

Query: Consider the variant GRPPQPKSVEDLLDRINLKEHMPTFLFNGYEDLDTFKLLEEEDLDELNIRDPEHRAVLLTAVELLQEYDSD [N71D] and give its recorded abundance fitness.
Response: 0.197

Query: Consider the variant GRPPQPKSVEDLLDRINLKEHMPTFLFNGYEDLDTFKLLEEEDLDELNIRDPEHRAVLLTYVELLQEYDSN [A61Y] and give its recorded abundance fitness.
Response: -0.609

FYI, the data here is from the Human Domainome abundance scans (Beltran et al. 2025).
